- target or test system: Neutrophil collagenase (Homo sapiens, UniProt P22894)
- Sequence (P22894 whole entry): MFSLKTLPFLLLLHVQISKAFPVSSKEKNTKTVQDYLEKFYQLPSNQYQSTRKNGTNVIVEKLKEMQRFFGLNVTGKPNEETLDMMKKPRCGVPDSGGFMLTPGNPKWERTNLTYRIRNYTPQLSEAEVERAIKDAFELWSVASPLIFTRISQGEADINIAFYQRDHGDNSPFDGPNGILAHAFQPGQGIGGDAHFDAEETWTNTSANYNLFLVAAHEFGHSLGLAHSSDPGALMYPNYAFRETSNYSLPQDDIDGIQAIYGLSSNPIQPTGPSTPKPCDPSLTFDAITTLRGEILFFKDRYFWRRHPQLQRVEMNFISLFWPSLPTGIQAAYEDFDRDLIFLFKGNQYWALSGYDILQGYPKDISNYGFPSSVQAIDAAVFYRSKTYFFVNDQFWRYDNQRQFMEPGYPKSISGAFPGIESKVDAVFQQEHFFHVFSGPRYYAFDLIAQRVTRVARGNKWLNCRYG
- test details: Inhibition of MMP8 (unknown origin)-mediated Mca-Pro-Leu-Gly-Leu-Dpa-Ala-Arg-NH2 by fluorimetric assay
pKi: −log10 of the molar value.
Categorized via pKi: low = under 7, mid = from 7 up to 8, high = 8 and over

molecule | target or test system | class assignment
O=C(NO)C1CCCN1S(=O)(=O)CCc1ccc(-c2ccccc2)cc1 (single isomer, unassigned) | Neutrophil collagenase (Homo sapiens, UniProt P22894) | high

Query string: Quick check: band for O=C(NO)[C@H]1CCCN1S(=O)(=O)CCc1ccccc1
Result string: mid

---

- target or test system: Interstitial collagenase (Homo sapiens)
- Sequence (P03956 whole entry): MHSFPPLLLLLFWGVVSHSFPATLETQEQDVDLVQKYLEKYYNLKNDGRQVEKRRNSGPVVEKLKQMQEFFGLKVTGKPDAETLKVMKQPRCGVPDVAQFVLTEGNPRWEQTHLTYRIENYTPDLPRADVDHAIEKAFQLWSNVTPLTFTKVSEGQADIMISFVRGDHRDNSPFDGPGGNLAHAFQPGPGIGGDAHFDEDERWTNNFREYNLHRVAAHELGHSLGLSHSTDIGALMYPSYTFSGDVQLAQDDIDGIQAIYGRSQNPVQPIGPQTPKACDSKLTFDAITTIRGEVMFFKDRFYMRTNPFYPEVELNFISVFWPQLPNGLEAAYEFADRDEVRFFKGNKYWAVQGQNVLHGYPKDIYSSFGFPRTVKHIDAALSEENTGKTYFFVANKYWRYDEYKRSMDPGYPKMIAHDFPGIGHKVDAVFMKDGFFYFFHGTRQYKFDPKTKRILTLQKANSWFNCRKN
measured parameter: pKi
pKi is defined as minus the log10 of a concentration measured in mol/L.

Example entries begin here.
chem smiles | measured parameter | meas value
O=C(CNS(=O)(=O)CCc1ccc2c(c1)OCO2)NO | pKi | 4.71
O=C(NO)[C@H]1CCCN1S(=O)(=O)CCc1ccccc1 | pKi | 5.74
O=C(NO)[C@@H]1CCCN1S(=O)(=O)CCc1ccc2c(c1)OCO2 | pKi | 5.15
O=C(CNS(=O)(=O)c1ccccc1)NO | pKi | 5.47

We next turn to a different compound, shown below.
Query string: Answer with pKi of O=C(O)CNS(=O)(=O)c1ccc(-c2ccccc2)cc1 measured for Interstitial collagenase (Homo sapiens).
Result string: 6.44

---

- target or test system: Matrilysin (Homo sapiens)
- Sequence (P09237 whole entry): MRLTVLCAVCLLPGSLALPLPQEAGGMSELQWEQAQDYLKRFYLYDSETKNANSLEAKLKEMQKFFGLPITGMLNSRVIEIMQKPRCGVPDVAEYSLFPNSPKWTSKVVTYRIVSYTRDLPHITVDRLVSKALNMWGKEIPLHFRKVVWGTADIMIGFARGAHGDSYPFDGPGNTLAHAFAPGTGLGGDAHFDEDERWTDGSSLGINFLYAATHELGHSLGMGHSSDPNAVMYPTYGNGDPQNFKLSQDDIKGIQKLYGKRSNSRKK
measured parameter: pKi
pKi here is simply -log10 of the concentration when that concentration is written in mol/L.

Worked examples follow.
chem smiles | measured parameter | meas value
O=C(CNS(=O)(=O)c1ccc(-c2ccccc2)cc1)NO | pKi | 5.30
O=C(CNS(=O)(=O)CCc1ccccc1)NO | pKi | 4.97
COc1ccc(S(=O)(=O)NCC(=O)NO)cc1 | pKi | 5.40

Could you now look at the following molecule, please?
Query string: Provide Matrilysin (Homo sapiens) pKi reading for O=C(CNS(=O)(=O)c1ccccc1)NO .
Result string: 5.40

---

- target or test system: Neutrophil collagenase (Homo sapiens, UniProt P22894)
- test details: Inhibition of MMP8 (unknown origin)-mediated Mca-Pro-Leu-Gly-Leu-Dpa-Ala-Arg-NH2 by fluorimetric assay
measured parameter: pKi
Friendly reminder that pKi comes from taking -log10 of the concentration in mol/L.

Query string: Under Neutrophil collagenase (Homo sapiens, UniProt P22894): report pKi of O=C(NO)[C@@H]1CCCN1S(=O)(=O)CCc1ccc(Cl)s1 .
Result string: 8.22

Query string: Provide Neutrophil collagenase (Homo sapiens, UniProt P22894) pKi reading for O=C(NO)[C@@H]1CCCN1S(=O)(=O)CCc1ccc2c(c1)OCO2 .
Result string: 7.89

All values here come from ChEMBL document CHEMBL2384938.
